Where do the numbers come from? From paper PMC8165160.

assayed-system: NTCP (Homo sapiens, UniProt Q14973)
Sequence (Q14973 whole entry): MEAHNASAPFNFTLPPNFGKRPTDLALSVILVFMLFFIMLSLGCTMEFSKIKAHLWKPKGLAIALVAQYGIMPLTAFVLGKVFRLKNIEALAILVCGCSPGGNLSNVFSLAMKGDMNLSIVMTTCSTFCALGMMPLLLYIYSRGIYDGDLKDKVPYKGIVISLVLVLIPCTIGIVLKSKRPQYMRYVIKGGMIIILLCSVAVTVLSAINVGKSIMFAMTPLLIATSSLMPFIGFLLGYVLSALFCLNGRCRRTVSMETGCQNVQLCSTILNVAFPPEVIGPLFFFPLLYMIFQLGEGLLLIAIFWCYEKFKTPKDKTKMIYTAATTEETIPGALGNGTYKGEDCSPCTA
assay-details: Transport kinetics (concentration-dependent uptake) in NTCP-HEK293 cells
Type: cell-based
Design: The full-length open reading frames of NTCP, ASBT, and SOAT were cloned; expressed in transfected cells; host or cells: Flp-In T-REX HEK293 (NTCP-HEK293), tetracycline-induced
condition-notes: uptake via NTCP, 1 min, 37°C
Counter-ions that a name gives are not always drawn.
Field: Apparent K m. Provide a value for each of the compounds that follow.
Give bare numbers, in µM.

// solved cases for Apparent K m follow
C[C@]12CC[C@@H]3c4ccc(OS(=O)(=O)O)cc4CC[C@H]3[C@@H]1CCC2=O [E1S, Estrone-3-sulfate] :: 57.6
C[C@H](CCC(=O)NCCS(=O)(=O)O)[C@H]1CC[C@H]2[C@@H]3CC[C@@H]4C[C@H](O)CC[C@]4(C)[C@H]3CC[C@]12C :: 18.4
C[C@H](CCC(=O)NCCS(=O)(=O)O)[C@H]1CC[C@H]2[C@@H]3[C@H](O)C[C@@H]4C[C@H](O)CC[C@]4(C)[C@H]3C[C@H](O)[C@]12C :: 13.1

Moving on to the next compound.
What value of measured Apparent K m is listed for C[C@]12CC[C@H](OS(=O)(=O)O)CC1=CC[C@@H]1[C@@H]2CC[C@]2(C)C(=O)CC[C@@H]12 [DHEAS, Dehydroepiandrosterone sulfate] ?
56.1
